This collection of values is drawn from the supplement of paper PMC10567573.

B1: ZNF511 (parent)
chain: YEHHYHTLHGNVCSFCKRAFPSGH

Variants of: B1
protocol: protein stability index of a GFP-peptide fusion (GPS, HEK-293T) (PSI 1-6); higher = more stable;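 note: lentivirally expressed fusions sorted by FACS into six bins by GFP to DsRed ratio, PSI derived from sequencing read proportions per bin multiplied by bin number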
condition.context: c terminus: a fixed tail appended
reported.endpoint: protein stability index
The answer should be a number; do not append a unit.

Query: Sample H24E — what was its protein stability index?
Reply: 2.57

Query: Sample T7L — what was its protein stability index?
Reply: 2.28

Query: Sample Y5K — what was its protein stability index?
Reply: 2.54

Query: Sample S22G — what was its protein stability index?
Reply: 2.02

Query: Sample L8Y — what was its protein stability index?
Reply: 2.6

Query: Sample T7N — what was its protein stability index?
Reply: 2.09

Query: Sample G10T — what was its protein stability index?
Reply: 2.13

Query: Sample E2N — what was its protein stability index?
Reply: 1.37

Query: Sample H6Y — what was its protein stability index?
Reply: 1.83

Query: Sample C16A — what was its protein stability index?
Reply: 2.05
